Sourced from paper doi:10.1101/2023.12.06.570349v1

testTarget: H3R-413 (Homo sapiens, UniProt Q9Y5N1, DEL274-305)
experimentalDetails: biochemical
propertyMeasured: Ki (nM)

Worked examples follow.
| compound | scaleUnit | Ki |
| --- | --- | --- |
| NCCCCc1c[nH]cn1 | nM | 1.58 |
| NCCCCCc1c[nH]cn1 | nM | 3.98 |

a. CCNC(=O)C1CC(F)(c2ccc(CN3CCCC3)c(F)c2)C1 (stereo not shown)
b. N=C(N)SCCc1cnc[nH]1
c. N=C(N)SCCCc1cnc[nH]1
d. CCCNC1CN(c2ccnc(N)n2)C1
e. CN(C)CCCCCc1c[nH]cn1
Given 5 compounds, produce a descending ranking by Ki. In your reply, arrange the labels in the requested order.
e, a, d, c, b
(e: 31.6 nM, a: 5.01 nM, d: 2 nM, c: 1.26 nM, b: 0.631 nM)

###

testTarget: H3R-413 (Homo sapiens, UniProt Q9Y5N1, DEL274-305)
experimentalDetails: biochemical
propertyMeasured: Ki (nM)

| molecule | scaleUnit | Ki |
| --- | --- | --- |
| c1cc(Cc2cnc[nH]2)ccn1 [immethridine, 4-(3H-imidazol-4-ylmethyl)pyridine] | nM | 0.398 |

A. c1ccc(COCCCc2c[nH]cn2)cc1 [proxyfan, 4-[3-(phenylmethoxy)propyl]-3H-imidazole]
B. O=C(c1ccc(CN2CCOCC2)cc1)N1CCN(C2CC2)CC1 [bavisant]
Select the item whose Ki value is smaller, choosing between A and B . I would appreciate it if you answered with the label of your choice.
B
